tested on: NCI-H322M; test: Growth inhibition of human NCI-H322M cells at 10 uM after 48 hrs by SRB assay relative to control; type: functional; conditions: read-out: GI
Decision: inhibition of growth at 10 µM >= 20% yields true (1), all other cases yield false (0).

Observe how each entry below is paired with its result.
>>> class_label("COc1cc2oc(-c3cccc(NC(=O)c4ccc5c(c4)OCO5)c3)cc(=O)c2c(OC)c1OC")
"true (1)"
>>> class_label("COc1cc2oc(-c3cccc(C(=O)Nc4ccc5c(c4)OCO5)c3)cc(=O)c2c(OC)c1OC")
"true (1)"
>>> class_label("COc1ccccc1NC(=O)c1cccc(-c2cc(=O)c3c(O)c(OC)c(OC)cc3o2)c1")
"false (0)"
>>> class_label("COc1ccc(NC(=O)c2cccc(-c3cc(=O)c4c(OC)c(OC)c(OC)cc4o3)c2)cc1")
"true (1)"
>>> class_label("COc1ccccc1C(=O)Nc1cccc(-c2cc(=O)c3c(O)c(OC)c(OC)cc3o2)c1")
"false (0)"
>>> class_label("COc1cc2oc(-c3cccc(NC(=O)c4ccccc4)c3)cc(=O)c2c(OC)c1OC")
"false (0)"

Moving on to another compound below.
Lookup: Is inhibition of growth at 10 µM for COc1cccc(C(=O)Nc2cccc(-c3cc(=O)c4c(O)c(OC)c(OC)cc4o3)c2)c1 at or above 20%?
Found: true (1)
